Where these numbers come from: patent US9085603B2

target: UniProt P06401; test: Progesterone receptor antagonistic effect in stably transfected SK-N-MC cells, MTV-LUC reporter (PR-A); details: antagonism of 0.1 nmol/l promegestone, luciferase reporter, 24 hours
Sequence (P06401 165-933): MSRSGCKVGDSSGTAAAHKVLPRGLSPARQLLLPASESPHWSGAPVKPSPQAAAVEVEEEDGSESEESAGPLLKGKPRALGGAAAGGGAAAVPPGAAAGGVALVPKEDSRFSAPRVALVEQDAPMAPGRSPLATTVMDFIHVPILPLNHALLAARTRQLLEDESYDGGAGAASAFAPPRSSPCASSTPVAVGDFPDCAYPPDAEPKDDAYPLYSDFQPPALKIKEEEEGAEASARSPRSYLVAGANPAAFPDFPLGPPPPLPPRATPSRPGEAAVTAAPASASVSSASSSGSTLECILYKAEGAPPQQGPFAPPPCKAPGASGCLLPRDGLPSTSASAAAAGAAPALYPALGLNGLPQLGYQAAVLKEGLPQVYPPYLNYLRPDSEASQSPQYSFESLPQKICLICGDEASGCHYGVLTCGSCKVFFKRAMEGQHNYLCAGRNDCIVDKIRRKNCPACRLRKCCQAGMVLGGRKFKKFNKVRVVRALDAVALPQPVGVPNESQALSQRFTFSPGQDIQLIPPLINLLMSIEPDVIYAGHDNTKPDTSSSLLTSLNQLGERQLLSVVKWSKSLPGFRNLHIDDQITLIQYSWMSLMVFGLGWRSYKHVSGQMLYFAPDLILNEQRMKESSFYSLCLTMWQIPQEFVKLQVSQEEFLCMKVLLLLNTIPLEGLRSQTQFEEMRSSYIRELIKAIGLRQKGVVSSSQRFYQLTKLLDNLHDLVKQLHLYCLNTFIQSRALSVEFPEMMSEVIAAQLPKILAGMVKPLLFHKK
pIC50: −log10 of the molar value.
MEASUREMENT NAME: pIC50

// solved cases for pIC50 follow
COMPOUND | pIC50
C[C@]12C[C@H](c3ccc(CN4CCN(c5ccccc5)CC4)cc3)C3=C4CCC(=O)C=C4CC[C@H]3[C@@H]1CC[C@@]2(O)C(F)(F)C(F)(F)F | 8.51
C[C@]12C[C@H](c3ccc(CNc4ccc(Cl)cc4)cc3)C3=C4CCC(=O)C=C4CCC3C1CC[C@@]2(O)C(F)(F)C(F)(F)F (stereo partly drawn) | 8.68
CCN(CC)Cc1ccc([C@H]2C[C@@]3(C)C(CC[C@@]3(O)C(F)(F)C(F)(F)F)C3CCC4=CC(=O)CCC4=C32)cc1 (stereo partly drawn) | 7.29
C[C@]12C[C@H](c3ccc(CNc4ccccc4)cc3)C3=C4CCC(=O)C=C4CCC3C1CC[C@@]2(O)C(F)(F)C(F)(F)F (stereo partly drawn) | 8.79

(I) C[C@]12C[C@H](c3ccc(CN4CCN(C(=O)c5ccccc5)CC4)cc3)C3=C4CCC(=O)C=C4CCC3C1CC[C@@]2(O)C(F)(F)C(F)(F)F (stereo partly drawn)
(II) C[C@]12C[C@H](c3ccc(CNc4cccc(C(N)=O)c4)cc3)C3=C4CCC(=O)C=C4CC[C@H]3[C@@H]1CC[C@@]2(O)C(F)(F)C(F)(F)F
Of I versus II , which is the one with smaller reported pIC50? Mark your selection by writing its label.
II
(II: 9.08, I: 10.04)
